- Tested on: TK-10
- Protocol Text: Cytotoxicity against human TK10 cells
- Type: functional
- Applied Conditions: read-out: pTGI (converted)

# Structure String, Assay Target, Unit Text, Prefix Operator, TGI
rows = [
    ("COc1cc(/C=C/c2cc(OC)c3c(CC=C(C)C)c[nH]c3c2)cc2c1O[C@]1(C)CC[C@@H](O)C(C)(C)[C@H]1C2", "TK-10", "µM", "=", 17.4),
    ("COc1cc(/C=C/c2cc(O)c3cc(CC=C(C)C)[nH]c3c2)cc2c1O[C@]1(C)CC[C@@H](O)C(C)(C)[C@H]1C2", "TK-10", "µM", ">", 100),
    ("COc1cc(/C=C/c2cc(O)c3c(c2)C[C@@H]2C(C)(C)[C@H](O)CC[C@@]2(C)O3)cc2c1ccn2C", "TK-10", "µM", "=", 25.1),
    ("COc1cc(/C=C/c2cc(OC)c3ccn(C)c3c2)cc2c1O[C@]1(C)CC[C@@H](O)C(C)(C)[C@H]1C2", "TK-10", "µM", "=", 93.3),
    ("COc1cc(/C=C/c2cc(O)c3c(CC=C(C)C)c[nH]c3c2)cc2c1O[C@]1(C)CC[C@@H](O)C(C)(C)[C@H]1C2", "TK-10", "µM", "=", 50.1),
    ("COc1cc(/C=C/c2cc(OC)c3c(C/C=C(\\C)CCC=C(C)C)c[nH]c3c2)cc2c1O[C@]1(C)CC[C@@H](O)C(C)(C)[C@H]1C2", "TK-10", "µM", "=", 46.8),
    ("COc1cc(/C=C/c2cc(O)c3c(C/C=C(\\C)CCC=C(C)C)c[nH]c3c2)cc2c1O[C@]1(C)CC[C@@H](O)C(C)(C)[C@H]1C2", "TK-10", "µM", ">", 100),
]
